molecular target: UniProtKB P10828
Sequence (P10828 whole entry): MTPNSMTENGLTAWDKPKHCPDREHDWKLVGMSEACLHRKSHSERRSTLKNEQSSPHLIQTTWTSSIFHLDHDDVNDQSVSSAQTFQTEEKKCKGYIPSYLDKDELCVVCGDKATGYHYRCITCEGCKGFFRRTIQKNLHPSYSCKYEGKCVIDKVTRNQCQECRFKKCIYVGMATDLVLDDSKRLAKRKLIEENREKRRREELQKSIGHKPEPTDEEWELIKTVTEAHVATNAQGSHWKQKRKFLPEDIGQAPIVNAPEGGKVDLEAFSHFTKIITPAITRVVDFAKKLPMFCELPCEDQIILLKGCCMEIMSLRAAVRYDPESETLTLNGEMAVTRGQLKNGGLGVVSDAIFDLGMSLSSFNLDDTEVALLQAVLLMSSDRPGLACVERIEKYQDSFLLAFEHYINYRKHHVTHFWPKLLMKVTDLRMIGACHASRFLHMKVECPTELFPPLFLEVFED
Recorded EC50 values for a group of compounds are listed next.
Please reply with the bare figure in nM and do not write the unit itself.

CC(C)c1cc(Oc2c(Cl)cc(Nc3c(O)c(=O)c3=O)cc2Cl)ccc1O    70

Note: attention shifts to another entry.
QUERY: What value of EC50 has been reported for the following compound? CC(C)(C)c1cc(Oc2c(Cl)cc(Nc3c(O)c(=O)c3=O)cc2Cl)ccc1O
RESULT: 317

* * *

Recorded EC50 values for a group of compounds are listed next.
target: Thyroid hormone receptor alpha (Homo sapiens); test: Agonist activity at human thyroid hormone receptor alpha expressed in CV1 cells by TRE-luciferase assay
Sequence (P10827 whole entry): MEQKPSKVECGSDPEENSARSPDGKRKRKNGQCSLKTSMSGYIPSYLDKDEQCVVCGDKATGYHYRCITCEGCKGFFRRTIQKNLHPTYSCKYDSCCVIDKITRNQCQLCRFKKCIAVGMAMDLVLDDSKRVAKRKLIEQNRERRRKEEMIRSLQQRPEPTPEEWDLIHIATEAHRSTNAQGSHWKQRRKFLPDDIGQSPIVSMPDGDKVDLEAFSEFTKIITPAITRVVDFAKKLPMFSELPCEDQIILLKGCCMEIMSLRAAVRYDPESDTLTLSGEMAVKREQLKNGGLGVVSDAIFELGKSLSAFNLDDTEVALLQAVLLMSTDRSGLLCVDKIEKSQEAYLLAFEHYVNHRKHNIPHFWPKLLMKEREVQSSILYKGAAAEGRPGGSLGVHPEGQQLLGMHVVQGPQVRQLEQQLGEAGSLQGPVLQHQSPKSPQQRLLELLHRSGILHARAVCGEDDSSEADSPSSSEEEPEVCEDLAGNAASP
Just so you know, I need the unit written after the number.

CC(C)(C)c1cc(Oc2c(Cl)cc(Nc3c(O)c(=O)c3=O)cc2Cl)ccc1O    1060 nM

Note: attention shifts to another entry.
QUERY: What value of EC50 has been reported for the following compound? CC(C)c1cc(Oc2c(Cl)cc(Nc3c(O)c(=O)c3=O)cc2Cl)ccc1O
RESULT: 222 nM
